Target: T. gondii ME49Luc in IFN-y HeLa, luciferase, 72 h
Assay: T. gondii growth inhibition with IFN-gamma, dose response, cell-based, ME49Luc, HeLa, luciferase, 72 h (AID 1259418)
Results filed as inconclusive are left out.
value.kind: AC50

1. O=S(=O)(c1cccs1)N1CCCCN2[C@H](CO)[C@@H](c3ccc(/C=C/c4ccccc4)cc3)[C@@H]2C1 = 22 µM
2. COCC(=O)N(C[C@H]1N[C@H](CO)[C@@H]1c1ccc(C2=CCCC2)cc1)C1CCCC1 = 16.3 µM
3. COc1ccc(S(=O)(=O)N(Cc2nc(-c3cccc(C)c3)oc2C)c2ccccc2OC)cc1 = 6 µM
4. C1=C(c2ccccc2)CC(c2ccccc2)=NN=C1c1ccccc1 = 15.6 µM

* * *

Target: T. gondii ME49Luc in IFN-y HeLa, luciferase, 72 h
Experiment: T. gondii growth inhibition with IFN-gamma, dose response, cell-based, ME49Luc, HeLa, luciferase, 72 h (AID 1259418)
Records with an inconclusive call do not appear. The source made the active and inactive calls.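 How the source made its calls: active means fitted half-maximal concentration of signal decrease at or below twice the sample's top tested concentration; inconclusive means flat curve between -70 and -30 percent, or poor fit; inactive means flat within 30 percent, signal rise, or potency above limit.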
Possible outcomes: active, inactive

1. COc1cc(Nc2nc(SCc3ccccc3F)nc3ccccc23)cc(OC)c1OC = active
2. N#Cc1cccc(-c2ccc(C3[C@@H]4CN(C(=O)Nc5ccc(C(F)(F)F)cc5)C[C@H]3N4)cc2)c1 (stereo partly specified) = active
3. O=C(CCC1N=C2c3ccccc3N=C(SCc3ccc(F)cc3)N2C1=O)NCc1ccccc1 (stereo unspecified) = active
4. COc1ccc2c(c1)NC1(CCN(C(=O)c3c(F)cccc3F)CC1)c1cccn1-2 = inactive
5. O=C(NCCc1csc(-c2ccccc2)n1)[C@H]1CCCN1C(=O)c1ccccc1 = active
6. Cc1ccc(-c2csc(-c3cccn3CC(=O)NCCN3CCC(C)CC3)n2)cc1 = active
7. O=C(Nc1ccc(-c2nc(-c3ccccc3)co2)cc1)c1cccc(Cl)c1 = active
8. CC(C)(C)OC(=O)Nc1cc(-c2cn[nH]c2C2CCCN(C(=O)OC(C)(C)C)C2)ccn1 (stereo unspecified) = active
9. COc1ccccc1-c1ccc([C@H]2[C@H](CO)N[C@@H]2C#N)cc1 = active
10. COc1ccc(N2CC(NC(=O)C(=O)c3c[nH]c4ccccc34)CC2=O)cc1 (stereo unspecified) = active
11. COc1cccc(C(=O)Nc2ccc3c(c2)C(=O)N(C)[C@@H]2CC[C@H](CC(=O)N[C@H](C)c4ccccc4)O[C@@H]2CO3)c1 = active
12. Cc1cc(C)c(S(=O)(=O)N2CCC[C@@H]2C(=O)NCCc2csc(C)n2)c(C)c1 = active
13. CCOc1ccc(-c2nc(CN3CCN(C(=O)Nc4ccc(C)cc4Cl)CC3)c(C)o2)cc1 = active
14. COc1cccc(N(Cc2nc(-c3ccc(C)cc3)oc2C)S(=O)(=O)c2ccc(C)cc2)c1 = active
15. Cc1ccc(NC(=O)c2cc(-c3cnc(-c4ccccc4)nc3)cn2CC2CC2)cn1 = active
16. COc1ccc(-c2nc(N3CCOCC3)c3ccccc3n2)cc1 = active
17. COc1ccc(-c2ccc3nc(CO)[nH]c3c2)cc1Cl = active
18. O=C(Nc1cccc(F)c1)N1CCCCN2[C@@H](CO)[C@H](c3ccc(C#Cc4cccnc4)cc3)[C@@H]2C1 = active
19. Cc1ccccc1-c1ccc([C@H]2[C@H](CO)N3CCCCN(S(=O)(=O)Cc4ccccc4)C[C@@H]23)cc1 = active
20. CCOc1ccc(-c2nc(CN3CCN(C(=O)Nc4ccccc4)CC3)c(C)o2)cc1 = active
21. CCOc1ccc(-c2nc(CN(c3ccc(OC)cc3)S(=O)(=O)c3ccccc3)c(C)o2)cc1 = active
22. O=C(Cc1ccccn1)N1CC(=O)N2[C@@H](CO)[C@@H](c3ccc(C#CCC4CCCC4)cc3)[C@@H]2C1 = active
23. Clc1cncc(OC[C@H]2CO[C@@H]3CN(Cc4cccs4)C[C@@H]23)c1 = active
24. Cc1cc(C)cc(S(=O)(=O)N2CCC[C@@H]2C(=O)NCCc2csc(-c3ccccc3)n2)c1 = active
25. COc1ccc(N(Cc2nc(-c3ccc(C)cc3)oc2C)S(=O)(=O)c2ccccc2C)cc1 = active
26. CCCNC(=O)N1CCN(Cc2nc(-c3ccc(C)cc3)oc2C)CC1 = active

Where do these numbers come from? They come from PubChem BioAssay AID1259418.
